System: test plant species
Assay: Post-emergent herbicidal activity test (greenhouse, foliar spray, visual growth reduction)
Format: in vivo
Conditions: post-emergence, 336 h, AMARE: redroot pigweed (Amaranthus retroflexus), 140 g ai/ha, 14 days after application, read-out: Visual Growth Reduction (%) 14 Days After Application, AMARE
Provide the recorded pest or weed control at 140 g/ha for the entries that follow.

Recorded results for 4 compounds are shown here.
item smiles | measured target | pest or weed control at 140 g/ha
COC(=O)c1nc(-c2ccc(Cl)c(F)c2Cl)ccc1Cl | test plant species | 95 to 100%
O=C(O)c1nc(-c2ccc(SC(F)(F)F)cc2)c(Cl)cc1Cl | test plant species | 0 to 29%
COC(=O)c1nc(-c2ccc(C(F)(F)F)c(SC)c2Cl)ccc1Cl | test plant species | 30 to 44%
COc1c(Cl)ccc(-c2ccc(Cl)c(C(=O)O)n2)c1F | test plant species | 45 to 59%

Now consider a different compound.
Task item: Give its pest or weed control at 140 g/ha value. Item: COC(=O)c1nc(-c2ccc(C(F)(F)F)c(S(C)(=O)=O)c2Cl)ccc1Cl
Reply: 0 to 29%

---

Tested on: test plant species
Test: Post-emergent herbicidal activity test (greenhouse, foliar spray, visual growth reduction)
Assay type: in vivo
Conditions: post-emergence, 336 h, SORVU: grain sorghum (Sorghum vulgare), 140 g ai/ha, 14 days after application, read-out: Visual Growth Reduction (%) 14 Days After Application, SORVU
measurement type: pest or weed control at 140 g/ha

Recorded results for 8 molecules are shown here.
item smiles | pest or weed control at 140 g/ha
COc1cc2c(cc1-c1nc(C(=O)O)c(Cl)cc1F)OC(F)(F)O2 | 75 to 84%
O=C(OCc1ccccc1)c1nc(-c2ccc(C(F)(F)F)cc2Cl)ccc1Cl | 85 to 94%
COc1c(Cl)ccc(-c2nc(C(=O)O)c(Cl)c(Cl)c2F)c1F | 0 to 29%
COC(=O)c1nc(-c2cc(N)c(C(F)(F)F)cc2Cl)ccc1Cl | 60 to 74%
O=C(O)c1nc(-c2ccc(C(F)(F)F)nc2Cl)ccc1Cl | 85 to 94%
COC(=O)c1nc(-c2ccc(C(F)(F)F)cc2)c(Cl)cc1Cl | 30 to 44%
COC(=O)c1nc(-c2ccc3occc3c2)c(F)cc1Cl | 0 to 29%
COC(=O)c1nc(-c2cnc(C(F)(F)F)cc2Cl)ccc1Cl | 45 to 59%

Below are 2 molecules. Give each one its pest or weed control at 140 g/ha.
1. O=C(O)c1nc(-c2cc(Br)c(C(F)(F)F)cc2Cl)ccc1Cl
2. COC(=O)c1nc(-c2ccc(OC(F)F)cc2)c(F)cc1Cl

Reply:
1. 85 to 94%
2. 85 to 94%

---

Provide the recorded pest or weed control at 140 g/ha for the entries that follow.
Tested on: test plant species
Assay: Post-emergent herbicidal activity test (greenhouse, foliar spray, visual growth reduction)
Format: in vivo
Conditions: post-emergence, 336 h, IPOHE: ivy-leaf morning glory (Ipomoea hederacea), 140 g ai/ha, 14 days after application, read-out: Visual Growth Reduction (%) 14 Days After Application, IPOHE

item smiles | measurement type | measured result
COC(=O)c1nc(-c2ccc(C#N)cc2OC)c(F)cc1Cl | pest or weed control at 140 g/ha | 95 to 100%

Below are 3 molecules. Give each one its pest or weed control at 140 g/ha.
1. COC(=O)c1nc(-c2ccc(Cl)c3ccccc23)c(F)cc1Cl
2. COC(=O)c1nc(-c2ccc(C(F)(F)F)cc2Br)c(F)cc1F
3. Cc1cc(-c2ccc(Cl)c(C(=O)O)n2)ccc1C(F)(F)F

Reply:
1: 30 to 44%; 2: 95 to 100%; 3: 60 to 74%

Task item: Record lookup: for test plant species, what pest or weed control at 140 g/ha belongs to O=C(O)c1nc(-c2ccc(C(F)(F)F)c(C(F)F)c2F)c(F)cc1Cl ?
Reply: 95 to 100%
